Every entry's value here was drawn from ChEMBL document CHEMBL3217730.

Molecular target: Neuraminidase (Influenza A virus, UniProt B4URF0)
Sequence (B4URF0 whole entry): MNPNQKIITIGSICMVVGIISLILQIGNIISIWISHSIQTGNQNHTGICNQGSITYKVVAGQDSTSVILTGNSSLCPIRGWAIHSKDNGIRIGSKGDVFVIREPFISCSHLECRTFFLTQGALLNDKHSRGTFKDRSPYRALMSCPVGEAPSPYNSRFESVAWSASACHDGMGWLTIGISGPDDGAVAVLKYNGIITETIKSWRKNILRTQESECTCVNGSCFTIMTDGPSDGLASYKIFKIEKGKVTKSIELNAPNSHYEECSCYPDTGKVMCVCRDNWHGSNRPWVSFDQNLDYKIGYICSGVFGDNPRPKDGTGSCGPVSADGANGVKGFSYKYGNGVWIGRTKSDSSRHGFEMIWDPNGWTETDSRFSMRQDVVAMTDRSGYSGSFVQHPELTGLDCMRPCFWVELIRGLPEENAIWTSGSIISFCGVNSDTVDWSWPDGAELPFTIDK
Assay: Inhibition of Influenza virus neuraminidase A
Parameters: species or system unidentified influenza virus
Details: read-out: IC50
pIC50: −log10 of the molar value.
Cut-off 3 on pIC50, inclusive. At or above means y; below means n.

CCCN(CCC)C(=O)[C@@H](NC(C)=O)[C@H]1C[C@@](O)(C(=O)O)C[C@@H]1NC(=N)N; n
CCC(CC)NC(=O)[C@H](NC(C)=O)[C@H]1CC(C(=O)O)C[C@@H]1NC(=N)N (stereo not given in full); y

Query: Please tell me: is the molecule CCN(CC)C(=O)[C@@H](NC(C)=O)[C@H]1CC(C(=O)O)C[C@@H]1NC(=N)N (stereo not given in full) at or over 3 in terms of pIC50?
Response: y

Query: Please tell me: is the molecule `CC[C@@H](CC1CCCCC1)O[C@@H]1C=C(C(=O)O)C[C@H](N)[C@H]1NC(C)=O` at or over 3 in terms of pIC50?
Response: y

Query: Please tell me: is the molecule `CCO[C@@H]1C=C(C(=O)O)C[C@H](N)[C@H]1NC(C)=O` at or over 3 in terms of pIC50?
Response: n
